system: SNB-19 CNS; assay: NCI tumour cell line growth inhibition, 48 h
Assay endpoint: TGI (µM)
Give bare numbers, in µM.

- CC(C)=CCc1c2c(c(O)c3c1O[C@]14C(=C[C@@H]5C[C@H]1C(C)(C)O[C@@]4(C/C=C(/C)C(=O)O)C5=O)C3=O)CC(O)C(C)(C)O2 (some centres undefined): 40.4
- [Cl][Ru].c1ccc(-c2cccc(-c3ccccn3)n2)nc1.c1ccc(-c2ccnc3c2ccc2c(-c4ccccc4)ccnc23)cc1: 21.7

Read the next record carefully.
What value of measured TGI is listed for COc1ccc(C2C(C#N)=C(N)Oc3c2sc2ccc(C)cc32)cc1 (centres undefined) ? 86.7
